Taken from PubChem BioAssay (NCATS).

experiment: qHTS for Inhibitors of the Functional Ribonucleoprotein Complex (vRNP) of Lassa (LASV) Arenavirus: Viability assay - alamar blue signal for LASV Primary Screen (AID 1347083); settings: cell viability, alamar blue fluorescence (LASV minigenome counter-screen); series mostly up to 57.5 µM; also: nearly all actives have a fitted effect of over 80% in size
Records with an inconclusive call do not appear. The source made the active and inactive calls. Calls follow the shape of the full dose curve; tested in HEK293 reporter line.
Bench note: report the call from t = active, f = inactive

Would you please look over these solved cases?
CC(C)(C)NCC(O)c1ccc(O)c(CO)c1 (configuration not stated)
f
Cc1cn2c(-c3cn[nH]c3)cnc2c(Nc2ccc(C(=O)N3CCNCC3)cc2F)n1
t

# input Assay outcome for Clc1ccc2ncc(-c3cccc(NC4CNC4)n3)n2c1 : what was it?
# output t

# input Record lookup: outcome of this test for C#CC(C)(CC)OC(=O)c1ccccc1C(=O)O (configuration not stated) ?
# output f

# input Write down the call the test reported for this compound. Item: NC(CP(=O)(O)O)C(=O)O (configuration not stated)
# output f

# input Each compound tested received a call. Report the one for O=S(=O)(c1ccc(Cl)cc1)c1ccc(Cl)cc1 .
# output f

# input Short answer needed: outcome of this test for c1ccc2[nH]ccc2c1 ?
# output f

====

assay: qHTS of pediatric cancer cell lines to identify multiple opportunities for drug repurposing: Primary screen for OHS-50 cells (AID 1347103); details: OHS-50 osteosarcoma viability, CellTiter-Glo luminescence, 48 h; series mostly up to 57.3 µM; also: nearly all actives have a fitted effect of over 40% in size
Results filed as inconclusive are left out. Activity calls are given as the source filed them. Calls come from the whole dose curve; as a rule, active = well fitted cell-killing curve with a large enough effect; inconclusive = small, poorly fitted or top-dose-only effect; inactive = no such curve, though single readings can be large or run the other way.
Hello, when you answer, please use one of the following outcomes: active, inactive

# example entries with known answers
CC(=O)OCC1=C(C(=O)O)N2C(=O)[C@@H](N)[C@@H]2SC1
active
C#CC1(O)CCC2C3CCC4=CC(=O)CCC4(C)C3CCC21C (centres undefined)
inactive
CC1=C(O)C(=O)C=C2C1=CC=C1[C@@]2(C)CC[C@@]2(C)[C@@H]3C[C@](C)(C(=O)O)CC[C@]3(C)CC[C@]12C
active

Then this compound:
# input Called result for CC[C@H]1C=CC=CC[C@@H](C)[C@H](O)[C@@](C)(O)C(=O)[C@@H](C)[C@H](O)[C@@H](C)C(=O)[C@@H](C)[C@H](O)[C@@H](C)C=CC(=O)O[C@@H]2[C@@H](C)[C@H](CC1)O[C@]1(CC[C@H](C)[C@H](C[C@@H](C)O)O1)[C@H]2C
# output active

====

experiment: Quantitative High-Throughput drug screen in 47 multiple myeloma cell lines against the NCATS MIPE library collection: FR4_PLB cell viability assay (AID 1918924; also: nearly all actives have a fitted effect of over 35% in size; also: potency is read from the fitted curve at half-maximal effect); conditions: FR4_PLB myeloma cells viability, CellTiter-Glo ATP, 48 h; series mostly up to 45.8 µM
Records with an inconclusive call do not appear. Active and inactive are the calls of the source. The call rests on the fitted dose curve; in most records, active means well fitted cell-killing curve with a large enough effect; inconclusive means small, poorly fitted or top-dose-only effect, or effect the other way; inactive means no such curve, though single readings can be large or run the other way.
observationType: Potency

CN(C)NC(=O)CCC(=O)O
inactive
CN1[C@H]2CC(O)C[C@H]1[C@H]1O[C@H]12 (stereo not given in full)
26.4 µM (active)
c1cc2c(cc1[C@H]1OC[C@H]3[C@H]1CO[C@H]3c1ccc3c(c1)OCO3)OCO2
inactive
CCc1c(C(=O)C(N)=O)c2c(OCC(=O)O)cccc2n1Cc1ccccc1
inactive
O=C(O)CNC(=O)c1c(O)c2ccccc2n(Cc2ccccc2)c1=O
inactive
CC(=Cc1csc(C)n1)[C@@H]1C[C@H]2O[C@@H]2CCC[C@H](C)[C@@H](O)[C@@H](C)C(=O)C(C)(C)[C@@H](O)CC(=O)O1
inactive
CO[C@H]1CCC(O[C@H]2C[C@H]([C@]3(C)CC[C@]4(C[C@H](O)[C@@H](C)[C@@H]([C@@H](C)C=C(C)C(=O)[C@H](C)C[C@H](C)C(=O)O)O4)O3)O[C@]3(O[C@@H]([C@H]4O[C@@](O)(CO)[C@H](C)C[C@H]4C)C[C@H]3C)[C@H]2C)O[C@H]1C (stereo not given in full)
3.72 µM (active)
O=c1[nH]c2ccc(Cl)cc2c(N[C@@H]2CN3CCC2CC3)c1-c1nc2ccccc2[nH]1
0.0743 µM (active)
COC(=O)[C@@H](N)CCCN=C(N)N[N+](=O)[O-]
inactive

Let us move to another entry and its Potency.
# input Given CC(C)(C)[C@]1(O)C[C@@H]2OC(=O)C[C@@]23C(=O)O[C@@H]2OC(=O)[C@H](O)C213 (stereo not given in full) , respond with its Potency.
# output inactive
